System: 777334-354-R2-J4-PDC tumor spheroids with HUVEC/MSC, viability
Experiment: Anticancer human tumor 777334-354-R2-J4-PDC patient-derived pancreatic adenocarcinoma cell line growth inhibition [GQUAD]
Details: second compound 0.316 µM; first compound 3.16 µM; hits give low values
Strictly below 90% in viability, T/C: Y. Otherwise: N.

Nc1ccn(C2OC(CO)C(O)C2(F)F)c(=O)n1 (stereo unspecified) + Cc1cnc(CNC(=O)c2c(=O)c3ccc(N4CCCN(C)CC4)nc3n3c2sc2ccccc23)cn1	Y

q: Dear reviewer, please state whether COc1cc(C2c3cc4c(cc3C(OC3OC5COC(C)OC5C(O)C3O)C3COC(=O)C23)OCO4)cc(OC)c1O (stereo unspecified) + Cc1[nH]c2ccc(F)cc2c1-c1nc2c3cccnc3c3ncccc3c2[nH]1 has viability, T/C strictly beneath 90%.
a: Y

q: Dear reviewer, please state whether C=CCn1c(=O)c2cnc(Nc3ccc(N4CCN(C)CC4)cc3)nc2n1-c1cccc(C(C)(C)O)n1 + CN(C)c1ccc(Nc2c3ccc(NC(=O)CCN4CCCC4)cc3nc3cc(NC(=O)CCN4CCCC4)ccc23)cc1 has viability, T/C strictly beneath 90%.
a: Y

q: Dear reviewer, please state whether COc1ncnc(C2CC2)c1-c1ncc2cnn(Cc3ccc(-c4nc(C(F)(F)F)cn4C(C)C)cc3)c2n1 + Cc1[nH]c2ccc(F)cc2c1-c1nc2c3cccnc3c3ncccc3c2[nH]1 has viability, T/C strictly beneath 90%.
a: N

q: Dear reviewer, please state whether Cc1cccc(N(C)C(=O)C2C(O)CCN2c2nc(C)cc(C(F)(F)F)c2C#N)c1 (stereo unspecified) + Cc1[nH]c2ccc(F)cc2c1-c1nc2c3cccnc3c3ncccc3c2[nH]1 has viability, T/C strictly beneath 90%.
a: N

q: Dear reviewer, please state whether C=CCn1c(=O)c2cnc(Nc3ccc(N4CCN(C)CC4)cc3)nc2n1-c1cccc(C(C)(C)O)n1 + Cc1[nH]c2ccc(F)cc2c1-c1nc2c3cccnc3c3ncccc3c2[nH]1 has viability, T/C strictly beneath 90%.
a: Y

q: Dear reviewer, please state whether C#Cc1c(F)ccc2cc(O)cc(-c3ncc4c(N5CC6CCC(C5)N6)nc(OCC56CCCN5CC(F)C6)nc4c3F)c12 (stereo unspecified) + Cc1cnc(CNC(=O)c2c(=O)c3ccc(N4CCCN(C)CC4)nc3n3c2sc2ccccc23)cn1 has viability, T/C strictly beneath 90%.
a: Y

q: Dear reviewer, please state whether CC(C)(O)C1CCC(Nc2ccc3ncc(-c4cccc(C(F)(F)F)c4)n3n2)CC1 (stereo unspecified) + Cc1cnc(CNC(=O)c2c(=O)c3ccc(N4CCCN(C)CC4)nc3n3c2sc2ccccc23)cn1 has viability, T/C strictly beneath 90%.
a: Y

q: Dear reviewer, please state whether COc1ccc([C@@H](O)c2cc(-c3ncnc4cc(N5CCOCC5)ccc34)c(F)cc2Cl)nn1 + Cc1cnc(CNC(=O)c2c(=O)c3ccc(N4CCCN(C)CC4)nc3n3c2sc2ccccc23)cn1 has viability, T/C strictly beneath 90%.
a: Y

---

System: 777334-354-R2-J4-PDC tumor spheroids with HUVEC/MSC, viability
Assay: Anticancer human tumor 777334-354-R2-J4-PDC cell line growth inhibition [GQUAD];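 further: spheroids exposed to compounds for 7 days before readout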
Conditions: second compound 0.316 µM; first compound 0.316 µM; hits give low values
Excerpt: DNA G-quadruplex Stabilizer Agents in Combinations in Complex Spheroids A high-throughput screen of multi-cell type tumor spheroids was designed to identify active combinations of DNA G-quadruplex stabilizer agents and targeted small molecules. […] Compounds. […] If the clinical Cmax for an agent had not been determined, the highest concentration tested was 10 microM. […]
Strictly below 70% in viability, T/C: true. Otherwise: false.

See these solved cases before continuing.
CC[C@@]1(O)C(=O)OCc2c1cc1n(c2=O)Cc2cc3c(CN(C)C)c(O)ccc3nc2-1 + Cc1[nH]c2ccc(F)cc2c1-c1nc2c3cccnc3c3ncccc3c2[nH]1	true
COc1cc(C2c3cc4c(cc3C(OC3OC5COC(C)OC5C(O)C3O)C3COC(=O)C23)OCO4)cc(OC)c1O (stereo unspecified) + Cc1cnc(CNC(=O)c2c(=O)c3ccc(N4CCCN(C)CC4)nc3n3c2sc2ccccc23)cn1	false
Cc1[nH]c2ccccc2c1CCNCc1ccc(/C=C/C(=O)NO)cc1 + CN(C)c1ccc(Nc2c3ccc(NC(=O)CCN4CCCC4)cc3nc3cc(NC(=O)CCN4CCCC4)ccc23)cc1	true
Cc1cccc(N(C)C(=O)C2C(O)CCN2c2nc(C)cc(C(F)(F)F)c2C#N)c1 (stereo unspecified) + Cc1cnc(CNC(=O)c2c(=O)c3ccc(N4CCCN(C)CC4)nc3n3c2sc2ccccc23)cn1	false
CCCS(=O)(=O)Nc1ccc(F)c(C(=O)c2c[nH]c3ncc(-c4ccc(Cl)cc4)cc23)c1F + CN(C)c1ccc(Nc2c3ccc(NC(=O)CCN4CCCC4)cc3nc3cc(NC(=O)CCN4CCCC4)ccc23)cc1	false

q: Dear reviewer, please state whether Cc1[nH]c2ccccc2c1CCNCc1ccc(/C=C/C(=O)NO)cc1 + Cc1[nH]c2ccc(F)cc2c1-c1nc2c3cccnc3c3ncccc3c2[nH]1 has viability, T/C strictly beneath 70%.
a: true

q: Dear reviewer, please state whether C#Cc1c(F)ccc2cc(O)cc(-c3ncc4c(N5CC6CCC(C5)N6)nc(OCC56CCCN5CC(F)C6)nc4c3F)c12 (stereo unspecified) + Cc1[nH]c2ccc(F)cc2c1-c1nc2c3cccnc3c3ncccc3c2[nH]1 has viability, T/C strictly beneath 70%.
a: true

---

# reported viability, T/C; entries follow
Tested on: 777334-354-R2-J4-PDC tumor spheroids with HUVEC/MSC, viability
Experiment: Anticancer human tumor 777334-354-R2-J4-PDC cell line growth inhibition [GQUAD];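 further: spheroids exposed to compounds for 7 days before readout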
Settings: second compound 0.316 µM; first compound 0.316 µM; hits give low values
Please give a number only; it is taken to be in %.

CC(=O)O[C@H]1C(=O)[C@@]2(C)[C@H]([C@H](OC(=O)c3ccccc3)[C@]3(O)C[C@H](OC(=O)[C@H](O)[C@@H](NC(=O)c4ccccc4)c4ccccc4)C(C)=C1C3(C)C)[C@]1(OC(C)=O)CO[C@@H]1C[C@@H]2O + Cc1cnc(CNC(=O)c2c(=O)c3ccc(N4CCCN(C)CC4)nc3n3c2sc2ccccc23)cn1	61.5
C=CC(=O)N1CCN(c2nc(=O)n(-c3c(C)ccnc3C(C)C)c3nc(-c4c(O)cccc4F)c(F)cc23)C(C)C1 (centres undefined) + CN(C)c1ccc(Nc2c3ccc(NC(=O)CCN4CCCC4)cc3nc3cc(NC(=O)CCN4CCCC4)ccc23)cc1	103
COc1ncnc(C2CC2)c1-c1ncc2cnn(Cc3ccc(-c4nc(C(F)(F)F)cn4C(C)C)cc3)c2n1 + Cc1[nH]c2ccc(F)cc2c1-c1nc2c3cccnc3c3ncccc3c2[nH]1	96.7

Now take the following compound into account.
q: # get_value(readout='viability, T/C', item= CC1COCCN1c1cc(-c2ccnn2C)c2ccnc(-c3ccn[nH]3)c2n1 (centres undefined) + CN(C)c1ccc(Nc2c3ccc(NC(=O)CCN4CCCC4)cc3nc3cc(NC(=O)CCN4CCCC4)ccc23)cc1 )
a: 59.4

---

System: 777334-354-R2-J4-PDC tumor spheroids with HUVEC/MSC, viability
Assay: Anticancer human tumor 777334-354-R2-J4-PDC cell line growth inhibition [GQUAD];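 further: spheroids exposed to compounds for 7 days before readout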
Conditions: second compound 1 µM; first compound 0.1 µM; hits give low values
quantity_measured: viability, T/C (%)
Please give a number only; it is taken to be in %.

Recorded viability, T/C, per entry:
COc1ncnc(C2CC2)c1-c1ncc2cnn(Cc3ccc(-c4nc(C(F)(F)F)cn4C(C)C)cc3)c2n1 + Cc1[nH]c2ccc(F)cc2c1-c1nc2c3cccnc3c3ncccc3c2[nH]1	88.3
COc1ncnc(C2CC2)c1-c1ncc2cnn(Cc3ccc(-c4nc(C(F)(F)F)cn4C(C)C)cc3)c2n1 + CN(C)c1ccc(Nc2c3ccc(NC(=O)CCN4CCCC4)cc3nc3cc(NC(=O)CCN4CCCC4)ccc23)cc1	101

Now take the following compound into account.
q: # get_value(readout='viability, T/C', item= C=CCn1c(=O)c2cnc(Nc3ccc(N4CCN(C)CC4)cc3)nc2n1-c1cccc(C(C)(C)O)n1 + Cc1[nH]c2ccc(F)cc2c1-c1nc2c3cccnc3c3ncccc3c2[nH]1 )
a: 77.5

---

System: 777334-354-R2-J4-PDC tumor spheroids with HUVEC/MSC, viability
Test: Anticancer human tumor 777334-354-R2-J4-PDC cell line growth inhibition [GQUAD];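 further: spheroids exposed to compounds for 7 days before readout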
Conditions: second compound 1 µM; first compound 0.1 µM; hits give low values
Class field: derived from viability, T/C; ranges Low: < 60%; Mid: ≥ 60% and < 80%; High: ≥ 80%

See these solved cases before continuing.
CC(C)n1c(=O)n(C)c2cnc3cc(F)c(-c4ccc(OCCCN5CCCCC5)nc4)cc3c21 + CN(C)c1ccc(Nc2c3ccc(NC(=O)CCN4CCCC4)cc3nc3cc(NC(=O)CCN4CCCC4)ccc23)cc1	High
O=C(c1cc(Cc2n[nH]c(=O)c3ccccc23)ccc1F)N1CCN(C(=O)C2CC2)CC1 + Cc1cnc(CNC(=O)c2c(=O)c3ccc(N4CCCN(C)CC4)nc3n3c2sc2ccccc23)cn1	Mid
C#Cc1c(F)ccc2cc(O)cc(-c3ncc4c(N5CC6CCC(C5)N6)nc(OCC56CCCN5CC(F)C6)nc4c3F)c12 (stereo not given) + CN(C)c1ccc(Nc2c3ccc(NC(=O)CCN4CCCC4)cc3nc3cc(NC(=O)CCN4CCCC4)ccc23)cc1	Low
COc1ccc([C@@H](O)c2cc(-c3ncnc4cc(N5CCOCC5)ccc34)c(F)cc2Cl)nn1 + Cc1cnc(CNC(=O)c2c(=O)c3ccc(N4CCCN(C)CC4)nc3n3c2sc2ccccc23)cn1	High
CCCS(=O)(=O)Nc1ccc(F)c(C(=O)c2c[nH]c3ncc(-c4ccc(Cl)cc4)cc23)c1F + Cc1[nH]c2ccc(F)cc2c1-c1nc2c3cccnc3c3ncccc3c2[nH]1	High

q: Determine which band this molecule sits in: CC1COCCN1c1cc(C2(O)CC3CCC(C2)O3)c2cnn(-c3ccn[nH]3)c2n1 (stereo not given) + Cc1[nH]c2ccc(F)cc2c1-c1nc2c3cccnc3c3ncccc3c2[nH]1
a: Low

q: Determine which band this molecule sits in: CC(=O)O[C@H]1C(=O)[C@@]2(C)[C@H]([C@H](OC(=O)c3ccccc3)[C@]3(O)C[C@H](OC(=O)[C@H](O)[C@@H](NC(=O)c4ccccc4)c4ccccc4)C(C)=C1C3(C)C)[C@]1(OC(C)=O)CO[C@@H]1C[C@@H]2O + Cc1cnc(CNC(=O)c2c(=O)c3ccc(N4CCCN(C)CC4)nc3n3c2sc2ccccc23)cn1
a: Mid

q: Determine which band this molecule sits in: O=c1[nH]cc(F)c(=O)[nH]1 + CN(C)c1ccc(Nc2c3ccc(NC(=O)CCN4CCCC4)cc3nc3cc(NC(=O)CCN4CCCC4)ccc23)cc1
a: High
